assay notes: qHTS assay to identify small molecule antagonists of the TGF-beta/Smad signaling pathway - cell viability counter screen (AID 1346824); also: nearly all actives have a fitted effect of over 50% in size
measurement context: SBE-bla HEK293T viability, CellTiter-Glo luminescence; series mostly up to 76.8 µM
Inconclusive results are not listed. Active and inactive are the calls of the source. Calls follow the shape of the dose curve; as a rule, active = well fitted cell-killing curve with a large enough effect in the repeat runs; inconclusive = weak or mixed curves; inactive = flat fitted curve, though single readings scatter.
measurement label: outcome

Would you please look over these solved cases?
# compound, outcome
rows = [
    ("O=C(CCl)c1ccc(Cl)cc1Cl", "inactive"),
    ("O=[N+]([O-])C(Br)(CO)CO", "inactive"),
    ("CCN(C)N=O", "inactive"),
    ("CCOP(=S)(OCC)SCn1nnc2ccccc2c1=O", "inactive"),
    ("CCOS(C)(=O)=O", "inactive"),
    ("CCCCN=C=O", "inactive"),
    ("COc1nn(CSP(=S)(OC)OC)c(=O)s1", "inactive"),
    ("C=CCCl", "inactive"),
    ("O=C1C(Cl)C(CCl)CN1c1cccc(C(F)(F)F)c1 (stereo not given)", "inactive"),
    ("O=C1c2ccccc2C(=O)C1C(=O)C(c1ccccc1)c1ccccc1", "inactive"),
]

Bench note: what outcome did COCC(C)N(C(=O)CCl)c1c(C)csc1C (stereo not given) show?
inactive

Bench note: what outcome did C=CC(=O)OCC(C)O (stereo not given) show?
inactive

Bench note: what outcome did Nc1nc(=S)[nH][nH]1 show?
inactive

Bench note: what outcome did Oc1ccc(Cl)c(Cl)c1Cl show?
inactive

Bench note: what outcome did CC(C)N(CCC(C(N)=O)(c1ccccc1)c1ccccn1)C(C)C (stereo not given) show?
inactive

Bench note: what outcome did Cn1sc(Cl)cc1=O show?
inactive

Bench note: what outcome did O=Cc1ccc2c(c1)OCO2 show?
inactive

Bench note: what outcome did O=[N+]([O-])c1cc(C(F)(F)F)cc([N+](=O)[O-])c1Cl show?
inactive

Bench note: what outcome did Clc1ccc(C(OCCN2CCCCC2)c2ccccc2)cc1 (stereo not given) show?
inactive

Bench note: what outcome did CO/N=C(/C(=O)OC)c1ccccc1COc1ccccc1C show?
inactive

* * *

assay notes: qHTS assay to test for compound auto fluorescence at 460 nm (blue) in HEK293 cell free culture (AID 720681)
measurement context: cell-free medium, autofluorescence 405/460 nm (blue); series mostly up to 91.3 µM
Active and inactive are the calls of the source. The call rests on the fitted dose curve; in most records, active means well fitted curve in the direction sought with a large enough effect in the repeat runs; inconclusive means weak or mixed curves; inactive means flat fitted curve, though single readings scatter.
measurement label: outcome

Would you please look over these solved cases?
# compound, outcome
rows = [
    ("CCOP(=O)(OCC)O/C(=C/Cl)c1ccc(Cl)cc1Cl", "inactive"),
    ("O=C1C(=O)c2cccc3cccc1c23", "inactive"),
    ("ClCC(Br)CBr (stereo not given)", "inactive"),
    ("C=CC(=O)OC(C)(C)C", "inactive"),
    ("C=CC(C)=O", "inactive"),
    ("O=C(O)C(F)(F)C(F)(F)C(F)(F)C(F)(F)C(F)(F)C(F)(F)C(F)(F)C(F)(F)C(F)(F)F", "inactive"),
]

Next compound, please.
Bench note: what outcome did CC(C)O.CC(C)O.OCCN(CCO)CCO.OCCN(CCO)CCO.[Ti] show?
inactive

* * *

assay notes: qHTS assay to identify small molecule antagonists of the constitutive androstane receptor (CAR) signaling pathway - cell viability counter screen (AID 1224837); also: nearly all actives have a fitted effect of over 45% in size
measurement context: HepG2-CYP2B6-hCAR viability, CellTiter-Fluor, 23 h, co-treated with 50 nM CITCO; series mostly up to 92.4 µM
Records with an inconclusive call do not appear. The source made the active and inactive calls. Calls follow the shape of the dose curve; as a rule, active = well fitted cell-killing curve with a large enough effect in the repeat runs; inconclusive = weak or mixed curves, or effect the other way; inactive = flat fitted curve, though single readings scatter.
Can you answer with just one of these options? active, inactive

Hi, do you know how CCCN(CCC)c1c([N+](=O)[O-])cc(S(C)(=O)=O)cc1[N+](=O)[O-] came out in this test?
inactive

Hi, do you know how O=C(CBr)c1ccccc1 came out in this test?
inactive

Hi, do you know how c1ccc(C2CC2)c(OCC2=NCCN2)c1 came out in this test?
inactive

Hi, do you know how CC(=O)[C@H]1CC[C@H]2[C@@H]3CC[C@H]4C[C@](C)(O)CC[C@]4(C)[C@H]3CC[C@]12C came out in this test?
inactive

Hi, do you know how CCCCOC(=O)c1ccccc1C(=O)OCc1ccccc1 came out in this test?
inactive

Hi, do you know how C=CCCl came out in this test?
inactive

Hi, do you know how Cc1c(F)c(F)c(COC(=O)C2C(/C=C(\Cl)C(F)(F)F)C2(C)C)c(F)c1F (stereo unspecified) came out in this test?
inactive

Hi, do you know how NNC(=O)c1cccnc1 came out in this test?
inactive

Hi, do you know how Cl/C=C\Cl came out in this test?
inactive

Hi, do you know how O=S1OC[C@@H]2[C@H](CO1)[C@]1(Cl)C(Cl)=C(Cl)[C@@]2(Cl)C1(Cl)Cl (stereo partly specified) came out in this test?
inactive

Hi, do you know how Clc1cccc2ccccc12 came out in this test?
inactive

Hi, do you know how CCCCN=C=O came out in this test?
inactive

Hi, do you know how COC1=CC(=O)O[C@@H](CCc2ccccc2)C1 came out in this test?
inactive

Hi, do you know how O=C(O)c1ccccc1C(=O)Nc1cccc2ccccc12 came out in this test?
inactive

Hi, do you know how NCCCNCCCN came out in this test?
inactive

Hi, do you know how CC(Cl)C(C)Cl (stereo unspecified) came out in this test?
inactive

Hi, do you know how CC[C@H]1C[C@H]2[C@@H]3CCC4=CC(=O)CC[C@@H]4[C@H]3CC[C@]2(C)[C@H]1O came out in this test?
inactive

Hi, do you know how C=CC(=O)OCC(C)O (stereo unspecified) came out in this test?
inactive

Hi, do you know how COc1cc(CC(C)N)cc2c1OCO2 (stereo unspecified) came out in this test?
inactive

Hi, do you know how C=CCOC(C)=O came out in this test?
inactive

Hi, do you know how Brc1ccccc1 came out in this test?
inactive

Hi, do you know how OCCCBr came out in this test?
inactive

Hi, do you know how COc1nn(CSP(=S)(OC)OC)c(=O)s1 came out in this test?
inactive

Hi, do you know how II came out in this test?
inactive

Hi, do you know how COP(=S)(Oc1cc(Cl)c(Br)cc1Cl)c1ccccc1 (stereo unspecified) came out in this test?
inactive

Hi, do you know how CC(C)(OO)c1ccccc1 came out in this test?
inactive

Hi, do you know how O=C(O)C(F)(F)C(F)(F)C(F)(F)C(F)(F)C(F)(F)C(F)(F)C(F)(F)C(F)(F)C(F)(F)C(F)(F)F came out in this test?
inactive

Hi, do you know how BrCCCCBr came out in this test?
inactive

Hi, do you know how [CH3][Sn]([CH3])([Cl])[Cl] came out in this test?
inactive

Hi, do you know how NC(=O)CI came out in this test?
inactive

Hi, do you know how COC(=O)C(C)N(C(=O)Cc1ccccc1)c1c(C)cccc1C (stereo unspecified) came out in this test?
inactive

Hi, do you know how OC(c1ccc(Cl)cc1)(c1ccc(Cl)cc1)c1cccnc1 came out in this test?
inactive

Hi, do you know how CCCCCC[N+](=O)[O-] came out in this test?
inactive

Hi, do you know how Nc1nc(N)nc(N)n1 came out in this test?
inactive

Hi, do you know how CCC(COC(=O)c1cc(OC)c(OC)c(OC)c1)(c1ccccc1)N(C)C (stereo unspecified) came out in this test?
inactive

Hi, do you know how CC(C)N(CCC(C(N)=O)(c1ccccc1)c1ccccn1)C(C)C (stereo unspecified) came out in this test?
inactive

Hi, do you know how CCOC(=O)COc1cc(-c2nn(C)c(OC(F)F)c2Cl)c(F)cc1Cl came out in this test?
inactive

Hi, do you know how CCC(Br)(CC)C(=O)NC(N)=O came out in this test?
inactive

Hi, do you know how O=[N+]([O-])c1ccc(F)c([N+](=O)[O-])c1 came out in this test?
active

Hi, do you know how CC(C)(C)c1cc([N+](=O)[O-])cc([N+](=O)[O-])c1O came out in this test?
active

Hi, do you know how CCOP(=S)(Oc1ccc([N+](=O)[O-])cc1)c1ccccc1 (stereo unspecified) came out in this test?
inactive

Hi, do you know how N#CCc1ccccc1 came out in this test?
inactive

Hi, do you know how CCOP(=O)(OCC)Oc1ccc([N+](=O)[O-])cc1 came out in this test?
inactive

Hi, do you know how COCC(C)N(C(=O)CCl)c1c(C)csc1C (stereo unspecified) came out in this test?
inactive

Hi, do you know how CN(C)c1ccc(N(C)C)cc1 came out in this test?
inactive

Hi, do you know how CN1C(=O)C(O)N=C(c2ccccc2)c2cc(Cl)ccc21 (stereo unspecified) came out in this test?
inactive

Hi, do you know how O=Cc1ccc2c(c1)OCO2 came out in this test?
inactive

Hi, do you know how CN1[C@@H]2CC[C@H]1CC(OC(=O)c1cc(Cl)cc(Cl)c1)C2 (stereo partly specified) came out in this test?
inactive

Hi, do you know how C=CC(=O)OCC(C)C came out in this test?
inactive

Hi, do you know how CCOP(=S)(OCC)Oc1cc(Cl)c(Br)cc1Cl came out in this test?
inactive

Hi, do you know how O=C(NCc1cccnc1)Nc1ccc([N+](=O)[O-])cc1 came out in this test?
inactive

Hi, do you know how Cc1ccccc1C(=O)Nc1cccc(OC(C)C)c1 came out in this test?
inactive

Hi, do you know how O=C(O)CC(Cl)C(=O)O (stereo unspecified) came out in this test?
inactive

Hi, do you know how CO/N=C(/C(=O)OC)c1ccccc1COc1ccccc1C came out in this test?
inactive

Hi, do you know how CC1Sc2c(C(=O)O)c(=O)c3cc(F)c(N4CCNCC4)cc3n21 (stereo unspecified) came out in this test?
inactive

Hi, do you know how Cc1cc(=O)[nH]o1 came out in this test?
inactive
